// provenance: ChEMBL document CHEMBL1201862

Overview of recorded GI50 for various molecules
- System: SK-MEL-2
- Test summary: NCI tumour cell line growth inhibition, 48 h
Calls of active or inactive are those of the source. Cut-off read from the data, not from the text of the source: active = GI50 up to about 1.1 µM and inactive = higher. Residues, ends and D or L forms follow the SMILES beside them. *: point of attachment. Cbz = O=C(OCc1ccccc1)*

C/C=C/C=C/C=C/C=C/C(=O)O : > 100 µM (inactive)

Entry Cc1ccccc1C1CC(=O)CC(c2ccccc2C)C12C(=O)NC(=S)NC2=O (centres undefined) : reported GI50 = ? 13.4 µM (inactive)

Now try CCOC(=O)CCC(NC(=O)OCc1ccccc1)C(=O)NC(CCC(=O)OCC)C(=O)OCC (centres undefined) (Cbz-Glu(OEt)-Glu(OEt)-OEt; configuration not given here) . > 100 µM (inactive)

Now try "O=c1cc(NNc2cccc3ccccc23)[nH]c(=O)[nH]1" . 15 µM (inactive)

Now try COC(=O)CC1C=CC(C)(OC)OO1 (centres undefined) . > 100 µM (inactive)
